# Tested on: NFκB
# ASSAY PROTOCOL: NFκB inhibiting action: nitrous acid production in LPS-stimulated RAW 264.7 cells (Griess reagent)
# Type: cell-based
# CONDITION SUMMARY: Mus musculus, RAW264.7, 24 h; read-out: NFκB inhibition IC50
PARAMETER: IC50 (µM)
Use µM as the unit, but write only the number.

Data request: Which IC50 value is on record for `COc1ccc(-c2oc3cc(OC)cc(OC)c3c(=O)c2OC)cc1` ?
Data returned: 32

Data request: Subsequent entry: COc1ccc(-c2oc3cc(OC)cc(O)c3c(=O)c2OC)cc1 [KPEt-432, 5-hydroxy-3,7,4′-Trimethoxyflavone]
Data returned: 30

Data request: How about `COc1cc(OC)c2c(=O)cc(-c3ccccc3)oc2c1` ?
Data returned: 7

Data request: Moving on to the next molecule: `COc1cc(OC)c2c(=O)c(OC)c(-c3ccc(OC)c(OC)c3)oc2c1`
Data returned: 32

Data request: Again, but for `COc1cc(OC)c2c(=O)c(OC)c(-c3ccccc3)oc2c1`
Data returned: 27

Data request: Same read-out for `COc1cc(OC)c2c(=O)cc(-c3ccc(OC)c(OC)c3)oc2c1` ?
Data returned: 6

Data request: Check COc1cc(O)c2c(=O)cc(-c3ccccc3)oc2c1 [KPEt-421, 5-hydroxy-7-Methoxyflavone] too.
Data returned: 42
